measured-target: T1, hCD47-ECD/Fc protein (Sinobiological) (human, UniProt Q08722 19-139, biotinylated in the Octet assay, sites not stated)
T1 construct: extracellular domain; Bought protein; also called human CD47-Fc antigen; recombinant hCD47-ECD/Fc; not shown: Fc part of the bought fusion protein
T1 sequence (Q08722 19-139 limits assumed): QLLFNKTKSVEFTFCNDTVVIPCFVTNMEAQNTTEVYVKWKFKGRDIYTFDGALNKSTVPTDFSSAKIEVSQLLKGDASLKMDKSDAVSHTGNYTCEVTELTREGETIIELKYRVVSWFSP
method: ELISA, coated hCD47-ECD/Fc
measure: EC50 (pM)
Just the number in pM, nothing appended.

The examples below pair each entry with its known result.
1) TY25039 (antibody, V domains shown) VH: QVQPAQSGAEVKKPGSSVKVSCKASGYSISSGYYWGWIRQAPGQGLEWIGAISYSGSTYYSPSLKSRVTITADKSTSTAYMELSSLRSEDTAVYYCARHYLFAGSTSYDAFDIWGQGTLVTVSS VL: DIQLTQSPSSLSASVGDRVTITCRASQSVDFYGFSFLAWYQQKPGKAPKLLIYDASNRATGIPSRFSGSGSGTDFTLTISSLQPEDFATYYCQQSYRTPLTFGQGTKVEIKR : 3660
2) TY25037 (antibody, V domains shown) VH: QVQLVQSGAEVKKPGSSVKVSCKASGYSITSGHYWTWIRQAPGQGLEWIGGIIPVFGTPNYAQKFQGRVTITADKSTSTAYMELSSLRSEDTAVYYCASYGYGGAYFDVWGQGTLVTVSS VL: DIQLTQSPSSLSASVGDRVTITCRASQSVDFHGISFLHWYQQKPGKAPKLLIYDASNRATGIPSRFSGSGSGTDFTLTISSLQPEDFATYYCVQGIQWPWTFGQGTKVEIKR : 950

Field: next binder
Given the entry TY25034 (antibody, V domains shown) VH: EVQLVESGGGLVQPGGSLRLSCAASGYSITSGHYWNWIRQAPGKGLEWIGIISPSGGGTKYAQKFQGRVTISRDNSKNTLYLQLNSLRAEDTAVYYCARGARGYYALDYWGQGTLVTVSS VL: EIVLTQSPATLSLSPGERATLSCRASQSVRGRLLAWYQQKPGQAPRLLIYAASSLQSGVPARFSGSGSGTDFTLTISSLEPEDFAVYYCAQYLELPYTFGQGTKVEIKR , report its measured EC50. 470
